- Assay Comment: Optical / fluorescence properties (absorption, emission, extinction coefficient, quantum yield, lifetime)
- Format: physicochemical
- Condition Info: in dichloromethane
Experimental Readout: ε

COCCOCC#C[B-]1(C#CCOCCOC)n2c(C)cc(C)c2C(c2ccc(C(=O)NCC(=O)O)cc2)=C2C(C)=CC(C)=[N+]21 ... 67000 M⁻¹ cm⁻¹
COCCOCC#C[B-]1(C#CCOCCOC)n2c(C)cc(C)c2C(c2ccc(I)cc2)=C2C(C)=CC(C)=[N+]21 ... 90000 M⁻¹ cm⁻¹
CCOC(=O)CNC(=O)c1ccc(C2=C3C(C)=CC(C)=[N+]3[B-](C#CCOCCOC)(C#CCOCCOC)n3c(C)cc(C)c32)cc1 ... 84000 M⁻¹ cm⁻¹
COCCOCC#C[B-]1(C#CCOCCOC)n2c(C)cc(C)c2C(c2ccc(C(=O)O)cc2)=C2C(C)=CC(C)=[N+]21 ... 78500 M⁻¹ cm⁻¹
CCOC(=O)c1ccc(C2=C3C(C)=C(CC)C(C)=[N+]3[B-](C#CCOCCOC)(C#CCOCCOC)n3c(C)c(CC)c(C)c32)cc1 ... 80000 M⁻¹ cm⁻¹

Let us move to another entry and its ε.
Req: Need ε, item COCCOCC#C[B-]1(C#CCOCCOC)n2c(/C=C/c3ccc(OCCOCCOC)cc3)cc(C)c2C(c2ccc(C(=O)O)cc2)=C2C(C)=CC(/C=C/c3ccc(OCCOCCOC)cc3)=[N+]21
Resp: 118000 M⁻¹ cm⁻¹

---

- Assay Comment: Optical / fluorescence properties (absorption, emission, extinction coefficient, quantum yield, lifetime)
- Assay type: physicochemical
- Condition Info: in dichloromethane
Reported λem values for the following compounds.

Examples from the recorded data:
CCC1=C(C)C2=C(c3ccc(I)cc3)c3c(C)c(CC)c(C)n3[B-](C#CCOCCOC)(C#CCOCCOC)[N+]2=C1C ... 488 nm
COCCOCC#C[B-]1(C#CCOCCOC)n2c(C)cc(C)c2C(c2ccc(C(=O)NCC(=O)O)cc2)=C2C(C)=CC(C)=[N+]21 ... 511 nm
CCOC(=O)c1ccc(C2=C3C(C)=C(CC)C(C)=[N+]3[B-](C#CCOCCOC)(C#CCOCCOC)n3c(C)c(CC)c(C)c32)cc1 ... 488 nm
COCCOCC#C[B-]1(C#CCOCCOC)n2c(C)cc(C)c2C(c2ccc(C(=O)O)cc2)=C2C(C)=CC(C)=[N+]21 ... 513 nm
COCCOCC#C[B-]1(C#CCOCCOC)n2c(/C=C/c3ccc(OCCOCCOC)cc3)cc(C)c2C(c2ccc(I)cc2)=C2C(C)=CC(/C=C/c3ccc(OCCOCCOC)cc3)=[N+]21 ... 371 nm

Let us move to another entry and its λem.
Req: Need λem, item CCOC(=O)CNC(=O)c1ccc(C2=C3C(C)=CC(C)=[N+]3[B-](C#CCOCCOC)(C#CCOCCOC)n3c(C)cc(C)c32)cc1
Resp: 511 nm

---

- Assay Comment: Optical / fluorescence properties (absorption, emission, extinction coefficient, quantum yield, lifetime)
- Type: physicochemical
- Condition Info: asterisk: in water and PBS buffer
Marks after values point to notes of the source that are not given here.
Reported Φ values for the following molecules.

Req: Need Φ, item CCC1=C(C)C2=C(c3ccc(C(=O)O)cc3)c3c(C)c(CC)c(C)n3[B-](C#CCOCCOC)(C#CCOCCOC)[N+]2=C1C
Resp: 70* %

Req: Need Φ, item CCC1=C(C)C2=C(c3ccc(I)cc3)c3c(C)c(CC)c(C)n3[B-](C#CC[N+](C)(C)CCCS(=O)(=O)[O-])(C#CC[N+](C)(C)CCCS(=O)(=O)[O-])[N+]2=C1C
Resp: 61* %

Req: Need Φ, item COCCOCC#C[B-]1(C#CCOCCOC)n2c(C)cc(C)c2C(c2ccc(C(=O)NCC(=O)O)cc2)=C2C(C)=CC(C)=[N+]21
Resp: 50* %

Req: Need Φ, item COCCOCC#C[B-]1(C#CCOCCOC)n2c(C)cc(C)c2C(c2ccc(C(=O)O)cc2)=C2C(C)=CC(C)=[N+]21
Resp: 60* %

Req: Need Φ, item COCCOCC#C[B-]1(C#CCOCCOC)n2c(/C=C/c3ccc(OCCOCCOC)cc3)cc(C)c2C(c2ccc(C(=O)O)cc2)=C2C(C)=CC(C)=[N+]21
Resp: 70* %

FYI, the data here is from patent US8476461B2.
